Values compiled from paper PMC7826789.

Below is a list of entries, each paired with its recorded Percent Control value.
test system: ASK2; construct: gene MAP3K6; settings: Compound Concentration (nM):1000;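 note: KINOMEscan scanMAX binding as percent activity remaining versus control; lower means stronger binding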
REPORTED ENDPOINT: Percent Control (%)

COMPOUND	NUMERIC VALUE
O=C1Nc2ccc(C(=O)c3ccco3)cc2C1=Cc1cc(Cl)c(O)c(Cl)c1 [GW406108X]	72
Cl.O=C(Nc1ccc(Oc2ccc3[nH]c(NC(=O)c4ccco4)nc3c2)cc1)Nc1cc(C(F)(F)F)ccc1F [GW683134A]	93
NS(=O)(=O)c1ccc(N/N=C2\C(=O)Nc3ccc(Cl)cc32)cc1 [GW280670X]	91
NS(=O)(=O)c1ccc(N/N=C2\C(=O)Nc3ccc(-c4cnco4)cc32)cc1 [GW276655]	85
COc1ccccc1-c1cc(/C=C2\C(=O)Nc3ncc(Br)cc32)cc(Br)c1O [GW442130X]	100
CC(C)COC(=O)c1ccc2c(c1)/C(=C/Nc1ccc(S(N)(=O)=O)cc1)C(=O)N2 [GW416981X]	85
COc1ccc2cc(-c3c(-c4ccncc4)nc(-c4ccc(S(C)(=O)=O)cc4C)n3C)ccc2c1 [SB-633825]	74
COc1cc(/C=N/Nc2ncnc3[nH]ncc23)ccc1O [GW578748X]	75
COc1cc(C=NNc2ncnc3c2cnn3-c2ccccc2)ccc1O [GW513184X]	100
NS(=O)(=O)c1ccc(Nc2ncc(-c3ccccc3)o2)cc1 [GW572399X]	77
COc1cc(N2CCN(C(C)C)CC2)ccc1Nc1nc(Nc2ccc(F)cc2C(=O)NC[C@@H](O)CO)c2cc[nH]c2n1 [GSK1392956A]	73
CC1=C(C(=O)Nc2ccc3[nH]ncc3c2)C(c2ccc(Cl)c(Cl)c2)CC(=O)N1 (stereo not shown) [GSK299115A]	82
COc1cc2ncnc(Nc3ccc4c(cnn4Cc4ccccc4)c3)c2cc1OC.Cl [GW282449A]	74
C/C(Nc1ccc(S(N)(=O)=O)cc1)=C1/C(=O)Nc2ccccc21 [GW335962X]	69
COc1cc2ncn(-c3cc(O[C@H](C)c4ccccc4Cl)c(C(N)=O)s3)c2cc1OC [GSK237701A]	97
COC(=O)Nc1nc2ccc(Oc3ccc(NC(=O)Nc4cc(C(F)(F)F)ccc4F)cc3)cc2s1.Cl [GW693917A]	64
CN(C)c1cc2c(Nc3ccc4c(cnn4Cc4ccccc4)c3)ncnc2cn1 [GW282974X]	73
Cl.O=C(Nc1ccc(Oc2ccc3[nH]c(NC(=O)c4ccccc4)nc3c2)cc1)Nc1cc(C(F)(F)F)ccc1F [GW709042A]	80
Nc1ncnc2occ(-c3ccc(NC(=O)Nc4cc(C(F)(F)F)ccc4F)cc3)c12 [GW770249X]	80
Cl.c1ccc(Cc2nc3ccc(Nc4ncnc5ccccc45)cc3[nH]2)cc1 [GR269666A]	77
COc1cc(C)c(N(C)C(=O)CN(C)C)cc1Nc1nc(Nc2cccc(F)c2C(N)=O)c2cc[nH]c2n1 [GSK2219385]	70
COc1ccc2c(-c3ccnc(Nc4cccc(OC(F)(F)F)c4)n3)cnn2n1 [GW810372X]	78
CN1CCN(C(=O)c2ccc(NC(=O)Nc3ccc(N(C)c4ccnc(Nc5ccc(CS(C)(=O)=O)cc5)n4)cc3)cc2)CC1.Cl [GW830263A]	67
COc1cccc(-c2c[nH]c3c(N/N=C/c4ccncc4)ncnc23)c1 [GW814408X]	100
CCn1c(-c2nonc2N)nc2c(C#CC(C)(C)O)nc(OCCNC)cc21.Cl [GSK949675]	100
